Source listed as the supplement of paper PMC10567573.

B1: FBXO3 (parent)
chain: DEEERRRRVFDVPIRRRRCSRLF

Variants of: B1
ASSAY: protein stability index of a GFP-peptide fusion (GPS, HEK-293T) (PSI 1-6); higher = more stable;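 further: lentivirally expressed fusions sorted by FACS into six bins by GFP to DsRed ratio, PSI derived from sequencing read proportions per bin multiplied by bin number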
CONDITION LABEL: c terminus: native
REPORTED PROPERTY: protein stability index
Quick one: just the number, no unit, thanks!

GET /values?readout=protein stability index&item= I14L 2.56

Entry under review: R15T . Reported protein stability index? 2.72

Would you kindly share the measured protein stability index for V9H ? 3.54

Looking for the measured protein stability index of D1M , can you help? 2.97

So what does the record say about protein stability index for R8Q ? 3.66

What value of protein stability index has been reported for the following variant? R21H 3.59

Consider the variant shown here: R5K What is its recorded protein stability index? 3.32

protein stability index for L22P ? 3.85

# lookup: protein stability index of S20A 2.15

Bench note: what protein stability index did R16E show? 2.55

Which protein stability index reading was recorded for the variant F23K ? 4.1

Consider the variant R17L and give its measured protein stability index. 1.84

// lookup protein stability index for E2A 1.49

Could you share which protein stability index value was measured for D11G ? 2.65

Look up protein stability index for this variant: R7C 2.89

Give its protein stability index value. Item: I14A 2.64

Please look up its protein stability index: C19H 4.39
